Where do these numbers come from? They come from patent US20230303690A1.

Biological target: T1, LAG3 Protein, Human, Recombinant (His Tag) (Sino Biological Catalog No. 16498-H08H) (human, UniProt P18627 23-450)
T1 construct: Bought protein; also called hLAG3-His; LAG3-His; not shown: His tag
T1 sequence (looked up): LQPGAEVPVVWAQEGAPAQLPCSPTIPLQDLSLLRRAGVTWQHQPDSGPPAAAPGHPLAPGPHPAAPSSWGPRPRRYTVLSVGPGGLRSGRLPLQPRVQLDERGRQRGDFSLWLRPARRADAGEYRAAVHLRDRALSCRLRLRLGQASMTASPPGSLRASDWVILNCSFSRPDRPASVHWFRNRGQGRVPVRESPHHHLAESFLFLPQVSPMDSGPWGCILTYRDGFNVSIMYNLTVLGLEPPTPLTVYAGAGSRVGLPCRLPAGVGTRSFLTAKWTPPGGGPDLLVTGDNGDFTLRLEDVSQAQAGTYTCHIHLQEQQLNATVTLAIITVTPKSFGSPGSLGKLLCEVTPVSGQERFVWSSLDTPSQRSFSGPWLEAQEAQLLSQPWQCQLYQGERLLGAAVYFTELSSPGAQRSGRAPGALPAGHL
Test: SPR binning on LAG3-His; competitor 18
Items are presented alongside their recorded RU.
property-measured: RU (RU)

>  <binder>
sdAb No. 17 (VHH, Fc of the tested form not described; also called sdAb 17; not shown: Fc part implied by anti-human Fc capture and anti-human IgG1 Fc detection) VHH: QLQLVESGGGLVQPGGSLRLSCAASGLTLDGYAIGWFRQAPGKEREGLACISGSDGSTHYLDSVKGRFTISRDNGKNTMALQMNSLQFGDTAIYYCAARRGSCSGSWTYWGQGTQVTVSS

>  <result-number>
-7.5

$$$$
>  <binder>
sdAb No. 18 (VHH, Fc of the tested form not described; also called sdAb 18; not shown: Fc part implied by anti-human Fc capture) VHH: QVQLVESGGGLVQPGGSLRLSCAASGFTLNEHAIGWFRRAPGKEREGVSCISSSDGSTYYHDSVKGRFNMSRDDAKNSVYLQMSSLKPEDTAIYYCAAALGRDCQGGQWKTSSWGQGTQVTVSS

>  <result-number>
-9.1

$$$$
>  <binder>
sdAb No. 1 (VHH, the tested form was captured by anti-human Fc, its Fc is not described; also called sdAb 1; not shown: Fc part implied by anti-human Fc capture) VHH: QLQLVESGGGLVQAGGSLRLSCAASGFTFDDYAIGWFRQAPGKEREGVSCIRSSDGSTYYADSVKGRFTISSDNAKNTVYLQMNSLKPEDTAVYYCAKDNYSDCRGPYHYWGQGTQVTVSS

>  <result-number>
-10.7

$$$$
>  <binder>
sdAb No. 27 (VHH, Fc of the tested form not described; also called sdAb 27; not shown: Fc part implied by anti-human Fc capture and anti-human IgG Fc detection) VHH: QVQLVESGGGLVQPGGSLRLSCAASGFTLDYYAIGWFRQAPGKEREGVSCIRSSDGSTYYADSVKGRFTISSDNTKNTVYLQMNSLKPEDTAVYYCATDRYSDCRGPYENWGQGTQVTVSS

>  <result-number>
-9.6

$$$$
